Reference source for all entries: PubChem BioAssay AID1996

- APPLIED_CONDITIONS: buffer; pH 7.4; 200.0 µM
READOUT_KIND: log10 of solubility kinetic (log10 of the value in µg/mL)
All values: log10 solubility kinetic [µg/mL].

*Q* Note down log10 of solubility kinetic recorded for O=C(CN1CCc2ccccc2C1)Nc1ccccc1Cl
*A* 0.94

*Q* Note down log10 of solubility kinetic recorded for CC1(c2ccccc2Cl)NC(=O)N(CC(=O)N2CCc3ccccc32)C1=O (configuration not stated)
*A* 1.00

*Q* Note down log10 of solubility kinetic recorded for CC(=O)Nc1ccc(SCC(=O)c2cc(C)ccc2C)cc1
*A* 1.45

*Q* Note down log10 of solubility kinetic recorded for Cc1ccc(C(C)C)cc1S(=O)(=O)Nc1ccncc1
*A* 0.52

*Q* Note down log10 of solubility kinetic recorded for C=CCn1c(O)c(C(CC)=Nc2ccc3c(c2)CCC3)c(=O)[nH]c1=O
*A* 0.15

*Q* Note down log10 of solubility kinetic recorded for COc1ccc(-c2c(C#N)c(N)nc3c2CCC3)cc1
*A* -0.52
